Each entry below carries its recorded pKd.
target: GIPC2, Q8TF65; assay: holdup assay; set-up: key: below the threshold = too weak to quantify, mostly under pKd 3.1 to 4; conditions: plain residues with an end cap or a label only (N-terminal biotin on a linker: ttds)
Sequence (Q8TF65 112-203): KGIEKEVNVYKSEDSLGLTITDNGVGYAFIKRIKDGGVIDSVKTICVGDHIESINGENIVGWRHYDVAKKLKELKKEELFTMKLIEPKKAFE
Reply with the value as a number alone.

TVASEKESVM [SLC1A5, Q15758] | 3.54

Input: Field request: pKd | item: VLRLQSETSV [VANGL1, Q8TAA9]
Output: 3.75
